# Test system: Salmonella typhimurium
# runDescription: Mutagenicity in Salmonella typhimurium TA98 at 0.06 to 5 ug/plate after 1 hr by Ames test in presence of S9 fraction
# Assay type: toxicity, organism-based
# assaySetup: salmonella enterica subsp. enterica serovar typhimurium, s9, 1 h
testReadout: Activity

structureNotation | testReadout | val
COC(=O)c1c(C(F)(F)F)[n+]([O-])c2ccc(C(F)(F)F)cc2[n+]1[O-] | Activity | Non-toxic
CCOC(=O)c1c(C(F)(F)F)[n+]([O-])c2cc(F)c(F)cc2[n+]1[O-] | Activity | Non-toxic
CCOC(=O)c1c(C(F)(F)F)[n+]([O-])c2ccccc2[n+]1[O-] | Activity | Non-toxic
COC(=O)c1c(C(F)(F)F)[n+]([O-])c2ccccc2[n+]1[O-] | Activity | Toxic
CCOC(=O)c1c(C(F)(F)F)[n+]([O-])c2ccc(F)cc2[n+]1[O-] | Activity | Non-toxic

----------
# Test system: Trypanosoma cruzi
# runDescription: Antichagasic activity against epimastigote form of Trypanosoma cruzi Tulahuen 2 assessed as parasite growth inhibition at 25 uM measured on day 5 relative to control
# Type: functional
# assaySetup: Tulahuen 2, 120 h, read-out: GI
testReadout: inhibition of growth at 25 µM

structureNotation | testReadout | val
CCOC(=O)c1c(C(F)(F)F)[n+]([O-])c2ccc(C(F)(F)F)cc2[n+]1[O-] | inhibition of growth at 25 µM | 100%
CCOC(=O)c1c(C(F)(F)F)[n+]([O-])c2cc(C)c(C)cc2[n+]1[O-] | inhibition of growth at 25 µM | 87.5%
CCOC(=O)c1c(C(F)(F)F)[n+]([O-])c2ccc(OC)cc2[n+]1[O-] | inhibition of growth at 25 µM | 100%
COC(=O)c1c(C(F)(F)F)[n+]([O-])c2ccccc2[n+]1[O-] | inhibition of growth at 25 µM | 100%
CCOC(=O)c1c(C(F)(F)F)[n+]([O-])c2ccc(F)cc2[n+]1[O-] | inhibition of growth at 25 µM | 100%

----------
# Tested on: Salmonella typhimurium
# runDescription: Mutagenicity in Salmonella typhimurium TA98 at 0.06 to 5 ug/plate after 1 hr by Ames test in absence of S9 fraction
# Assay type: toxicity, organism-based
# assaySetup: salmonella enterica subsp. enterica serovar typhimurium

structureNotation | system | Activity
CCOC(=O)c1c(C(F)(F)F)[n+]([O-])c2ccccc2[n+]1[O-] | Salmonella typhimurium | Toxic
COC(=O)c1c(C(F)(F)F)[n+]([O-])c2ccc(C)cc2[n+]1[O-] | Salmonella typhimurium | Toxic
COC(=O)c1c(C(F)(F)F)[n+]([O-])c2ccccc2[n+]1[O-] | Salmonella typhimurium | Toxic
CCOC(=O)c1c(C(F)(F)F)[n+]([O-])c2ccc(F)cc2[n+]1[O-] | Salmonella typhimurium | Toxic
COC(=O)c1c(C(F)(F)F)[n+]([O-])c2ccc(C(F)(F)F)cc2[n+]1[O-] | Salmonella typhimurium | Non-toxic
CCOC(=O)c1c(C(F)(F)F)[n+]([O-])c2ccc(Cl)cc2[n+]1[O-] | Salmonella typhimurium | Toxic
COC(=O)c1c(C(F)(F)F)[n+]([O-])c2cc(F)c(F)cc2[n+]1[O-] | Salmonella typhimurium | Toxic
CCOC(=O)c1c(C(F)(F)F)[n+]([O-])c2cc(Cl)c(Cl)cc2[n+]1[O-] | Salmonella typhimurium | Non-toxic
CCOC(=O)c1c(C(F)(F)F)[n+]([O-])c2cc(F)c(F)cc2[n+]1[O-] | Salmonella typhimurium | Toxic
